- Tested on: 252836-082-R-J2-PDC tumor spheroids, viability
- test summary: Anticancer human tumor 252836-082-R-J2-PDC patient-derived head and neck squamous cell carcinoma cell line growth inhibition [PI3K]
- test conditions: second compound 0.0316 µM; first compound 0.1 µM; active compounds read low; spheroids with HUVEC and MSC
measured attribute: viability, T/C (%)
Field: numeric (%). Do not append units.

# count of solved cases: 2
molecule: Cn1ncnc1[C@H]1c2n[nH]c(=O)c3cc(F)cc(c23)N[C@@H]1c1ccc(F)cc1 + CC(Nc1ncnc2nc[nH]c12)c1cc2cccc(Cl)c2c(=O)n1-c1ccccc1
assay result: 58.8
--
molecule: CNC(=O)c1ccc(N2C(=S)N(c3ccc(C#N)c(C(F)(F)F)c3)C(=O)C2(C)C)cc1F + CC(Nc1ccc2c(c1)OCCn1cc(N3C(=O)OCC3C(F)F)nc1-2)C(N)=O
assay result: 81.7

Recorded viability, T/C for CCCS(=O)(=O)Nc1ccc(F)c(C(=O)c2c[nH]c3ncc(-c4ccc(Cl)cc4)cc23)c1F + COc1c(OCCCN2CCOCC2)ccc2c3n(c(=NC(=O)c4cnc(N)nc4)nc12)CCN3 , please?
57.6

Same again, this time with CC(C)n1nc(-c2ccc3oc(N)nc3c2)c2c(N)ncnc21 + COc1c(OCCCN2CCOCC2)ccc2c3n(c(=NC(=O)c4cnc(N)nc4)nc12)CCN3
15.3

Same again, this time with C[C@@H](NC(=O)c1ncnc(N)c1Cl)c1ncc(C(=O)Nc2cc(C(F)(F)F)c(Cl)cn2)s1 + Cc1nc(NC(=O)N2CCCC2C(N)=O)sc1-c1ccnc(C(C)(C)C(F)(F)F)c1
84.1

###

- Tested on: 252836-082-R-J2-PDC tumor spheroids, viability
- test summary: Anticancer human tumor 252836-082-R-J2-PDC cell line growth inhibition [PI3K];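 further: spheroids exposed to agents for seven days before readout; percent of vehicle DMSO control viability so 100% = untreated growth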
- test conditions: second compound 10 µM; first compound 0.316 µM; active compounds read low; spheroids with HUVEC and MSC
Below is a list of entries, each paired with its recorded viability, T/C value.
Field: numeric (%). Do not append units.

compound: CCN1CCN(Cc2ccc(Nc3ncc(F)c(-c4cc(F)c5nc(C)n(C(C)C)c5c4)n3)nc2)CC1 + Cc1nc(NC(=O)N2CCCC2C(N)=O)sc1-c1ccnc(C(C)(C)C(F)(F)F)c1
measured attribute: viability, T/C
assay result: 32

compound: CC1(C)CCC(Nc2ncc(C(F)(F)F)c(-c3c[nH]c4c(P(C)(C)=O)c(C#N)ccc34)n2)CN1 (stereo not drawn) + CC(Nc1ncnc2nc[nH]c12)c1cc2cccc(Cl)c2c(=O)n1-c1ccccc1
measured attribute: viability, T/C
assay result: 26

Item C=CC(=O)N1CCN(c2nc(=O)n(-c3c(C)ccnc3C(C)C)c3nc(-c4c(O)cccc4F)c(F)cc23)C(C)C1 (stereo not drawn) + CC(Nc1ncnc2nc[nH]c12)c1cc2cccc(Cl)c2c(=O)n1-c1ccccc1 with 252836-082-R-J2-PDC tumor spheroids, viability - viability, T/C?
69.4

###

- Test system: 252836-082-R-J2-PDC tumor spheroids, viability
- test summary: Anticancer human tumor 252836-082-R-J2-PDC cell line growth inhibition [PI3K];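 further: spheroids exposed to agents for seven days before readout; percent of vehicle DMSO control viability so 100% = untreated growth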
- test conditions: second compound 0.0316 µM; first compound 0.0316 µM; active compounds read low; spheroids with HUVEC and MSC
measured attribute: viability, T/C

compound: Cn1ncc(Cl)c1-c1cc(C(=O)NC(CN)Cc2cccc(F)c2)sc1Cl (stereo unspecified) + COc1c(OCCCN2CCOCC2)ccc2c3n(c(=NC(=O)c4cnc(N)nc4)nc12)CCN3
target or system: 252836-082-R-J2-PDC tumor spheroids, viability
assay result: 59.1%
//
compound: CC(C)NCC(C(=O)N1CCN(c2ncnc3c2C(C)CC3O)CC1)c1ccc(Cl)cc1 (stereo unspecified) + CC(Nc1ncnc2nc[nH]c12)c1cc2cccc(Cl)c2c(=O)n1-c1ccccc1
target or system: 252836-082-R-J2-PDC tumor spheroids, viability
assay result: 99.4%
//
compound: Cn1ncnc1[C@H]1c2n[nH]c(=O)c3cc(F)cc(c23)N[C@@H]1c1ccc(F)cc1 + Cc1nc(NC(=O)N2CCCC2C(N)=O)sc1-c1ccnc(C(C)(C)C(F)(F)F)c1
target or system: 252836-082-R-J2-PDC tumor spheroids, viability
assay result: 75.2%

Item CC(C)n1nc(-c2ccc3oc(N)nc3c2)c2c(N)ncnc21 + Cc1nc(NC(=O)N2CCCC2C(N)=O)sc1-c1ccnc(C(C)(C)C(F)(F)F)c1 with 252836-082-R-J2-PDC tumor spheroids, viability - viability, T/C?
51.7%

Same again, this time with CC1(C)CCC(Nc2ncc(C(F)(F)F)c(-c3c[nH]c4c(P(C)(C)=O)c(C#N)ccc34)n2)CN1 (stereo unspecified) + Cc1nc(NC(=O)N2CCCC2C(N)=O)sc1-c1ccnc(C(C)(C)C(F)(F)F)c1
39.2%

Same again, this time with CC(=O)c1c(C)c2cnc(Nc3ccc(N4CCNCC4)cn3)nc2n(C2CCCC2)c1=O + Cc1nc(NC(=O)N2CCCC2C(N)=O)sc1-c1ccnc(C(C)(C)C(F)(F)F)c1
91.8%
